The following variants are shown together with reported percent of parent values.
B1: FLAG-hnRNPH2 WT, full length [human] / Kapβ2 in HEK293T cells [human (endogenous in HEK293T)] (parent complex)
chain 1: MMLSTEGREGFVVKVRGLPWSCSADEVMRFFSDCKIQNGTSGIRFIYTREGRPSGEAFVELESEEEVKLALKKDRETMGHRYVEVFKSNSVEMDWVLKHTGPNSPDTANDGFVRLRGLPFGCSKEEIVQFFSGLEIVPNGMTLPVDFQGRSTGEAFVQFASQEIAEKALKKHKERIGHRYIEIFKSSRAEVRTHYDPPRKLMAMQRPGPYDRPGAGRGYNSIGRGAGFERMRRGAYGGGYGGYDDYGGYNDGYGFGSDRFGRDLNYCFSGMSDHRYGDGGSSFQSTTGHCVHMRGLPYRATENDIYNFFSPLNPMRVHIEIGPDGRVTGEADVEFATHEDAVAAMAKDKANMQHRYVELFLNSTAGTSGGAYDHSYVELFLNSTAGASGGAYGSQMMGGMGLSNQSSYGGPASQQLSGGYGGGYGGQSSMSGYDQVLQENSSDYQSNLA
chain 2: MVWDRQTKMEYEWKPDEQGLQQILQLLKESQSPDTTIQRTVQQKLEQLNQYPDFNNYLIFVLTKLKSEDEPTRSLSGLILKNNVKAHFQNFPNGVTDFIKSECLNNIGDSSPLIRATVGILITTIASKGELQNWPDLLPKLCSLLDSEDYNTCEGAFGALQKICEDSAEILDSDVLDRPLNIMIPKFLQFFKHSSPKIRSHAVACVNQFIISRTQALMLHIDSFIENLFALAGDEEPEVRKNVCRALVMLLEVRMDRLLPHMHNIVEYMLQRTQDQDENVALEACEFWLTLAEQPICKDVLVRHLPKLIPVLVNGMKYSDIDIILLKGDVEEDETIPDSEQDIRPRFHRSRTVAQQHDEDGIEEEDDDDDEIDDDDTISDWNLRKCSAAALDVLANVYRDELLPHILPLLKELLFHHEWVVKESGILVLGAIAEGCMQGMIPYLPELIPHLIQCLSDKKALVRSITCWTLSRYAHWVVSQPPDTYLKPLMTELLKRILDSNKRVQEAACSAFATLEEEACTELVPYLAYILDTLVFAFSKYQHKNLLILYDAIGTLADSVGHHLNKPEYIQMLMPPLIQKWNMLKDEDKDLFPLLECLSSVATALQSGFLPYCEPVYQRCVNLVQKTLAQAMLNNAQPDQYEAPDKDFMIVALDLLSGLAEGLGGNIEQLVARSNILTLMYQCMQDKMPEVRQSSFALLGDLTKACFQHVKPCIADFMPILGTNLNPEFISVCNNATWAIGEISIQMGIEMQPYIPMVLHQLVEIINRPNTPKTLLENTAITIGRLGYVCPQEVAPMLQQFIRPWCTSLRNIRDNEEKDSAFRGICTMISVNPSGVIQDFIFFCDAVASWINPKDDLRDMFCKILHGFKNQVGDENWRRFSDQFPLPLKERLAAFYGV

Variants of: B1
test_summary: co-immunoprecipitation (anti-FLAG IP, immunoblot densitometry); HEK293T cells transfected with FLAG-hnRNPH2 constructs; parent: 100; read off a plot

chain 1 P209L : ~20%
chain 1 R206G : ~26%
chain 1 R206W : ~48%
chain 1 Y210C : ~25%

Attention now shifts to the item below.
Ask: Fill in percent of parent for record chain 1 R206Q
Result: ~25%
